System: HepG2
Assay: Incorporation of 14C-acetate in the lipidic classes in HepG2 cells (hypolipidaemic activity)
Format: cell-based, human
Details: 10 μM; per culture plate
quantity measured: Incorporation of 14C-acetate: Cholesterol (cpm)
// note: answer is a bare numeric in cpm

Cc1c(C)c2c(c(C)c1O)CCC(C)OC(=O)C(C)(C)CCCO2 (stereo not shown)
19034
CCC1CCc2c(C)c(O)c(C)c(C)c2OCCCC(C)(C)C(=O)O1 (stereo not shown)
17458

Using the record for CC(C)(Sc1cc(C(C)(C)C)c(O)c(C(C)(C)C)c1)Sc1cc(C(C)(C)C)c(O)c(C(C)(C)C)c1 [Probucol, reference compound] , state its measured Incorporation of 14C-acetate: Cholesterol.
11389

Note down Incorporation of 14C-acetate: Cholesterol recorded for Cc1ccc(C)c(OCCCC(C)(C)C(=O)O)c1 [Gemfibrozil, reference compound]
25306

###

Known inhibition at 1 µM of a selection of compounds
Test system: HepG2
Test: Incorporation of 14C-acetate in the lipidic classes in HepG2 cells (hypolipidaemic activity)
Format: cell-based, human
Settings: Homo sapiens, HepG2; 1 μM; read-out: Incorporation of 14C-acetate: Esters of Cholesterol, percent referred to physiological solution
Your answer should be a plain number; it is taken to be in %.

CC(C)(Sc1cc(C(C)(C)C)c(O)c(C(C)(C)C)c1)Sc1cc(C(C)(C)C)c(O)c(C(C)(C)C)c1 [Probucol, reference compound]
54
Cc1ccc(C)c(OCCCC(C)(C)C(=O)O)c1 [Gemfibrozil, reference compound]
76
Cc1c(C)c2c(c(C)c1O)CCC(C)OC(=O)C(C)(C)CCCO2 (stereo not shown) [Example 3]
67

Identify measured inhibition at 1 µM obtained with HepG2 for CCC1CCc2c(C)c(O)c(C)c(C)c2OCCCC(C)(C)C(=O)O1 (stereo not shown) [Example 6] .
73

###

Test system: HepG2
Assay: Incorporation of 14C-acetate in the lipidic classes in HepG2 cells (hypolipidaemic activity)
Assay type: cell-based, human
Conditions: Homo sapiens, HepG2; 1 μM; read-out: Incorporation of 14C-acetate: Triglycerides, percent referred to physiological solution
Recorded inhibition at 1 µM for the following molecules
Numbers only; they are read as %.

See these solved cases before continuing.
Cc1ccc(C)c(OCCCC(C)(C)C(=O)O)c1 [Gemfibrozil, reference compound]
22
CCC1CCc2c(C)c(O)c(C)c(C)c2OCCCC(C)(C)C(=O)O1 (stereo not shown) [Example 6]
1
Cc1c(C)c2c(c(C)c1O)CCC(C)OC(=O)C(C)(C)CCCO2 (stereo not shown) [Example 3]
1

Alright, here's another molecule for you.
Answer with the recorded inhibition at 1 µM for the molecule listed here: CC(C)(Sc1cc(C(C)(C)C)c(O)c(C(C)(C)C)c1)Sc1cc(C(C)(C)C)c(O)c(C(C)(C)C)c1 [Probucol, reference compound]
8

###

Tested on: HepG2
Assay: Incorporation of 14C-acetate in the lipidic classes in HepG2 cells (hypolipidaemic activity)
Format: cell-based, human
Settings: 1 μM; per culture plate
Each entry below carries its recorded Incorporation of 14C-acetate: Triglycerides.
Please reply with the bare figure in cpm and do not write the unit itself.

Tell me its Incorporation of 14C-acetate: Triglycerides on HepG2: Cc1ccc(C)c(OCCCC(C)(C)C(=O)O)c1 [Gemfibrozil, reference compound]
84593

Find the measured Incorporation of 14C-acetate: Triglycerides of CC(C)(Sc1cc(C(C)(C)C)c(O)c(C(C)(C)C)c1)Sc1cc(C(C)(C)C)c(O)c(C(C)(C)C)c1 [Probucol, reference compound] with HepG2 as test system.
100202

Write down the reported Incorporation of 14C-acetate: Triglycerides (system: HepG2) of CCC1CCc2c(C)c(O)c(C)c(C)c2OCCCC(C)(C)C(=O)O1 (stereo not shown) [Example 6]
107497

Name the value of Incorporation of 14C-acetate: Triglycerides reported for Cc1c(C)c2c(c(C)c1O)CCC(C)OC(=O)C(C)(C)CCCO2 (stereo not shown) [Example 3] when tested on HepG2.
109681
